Assign percentage damage caused to the plant, AMAPA to each entry below.
- System: Amaranthus palmeri (AMAPA)
- EXPERIMENTAL PROTOCOL: Pre-emergence herbicide glasshouse test
- Assay type: in vivo
- APPLIED CONDITIONS: 250 g/ha, evaluated after 13 days, five-point scale

COMPOUND	RESULT
CCO/N=C/CCc1nc(C(F)(F)F)nc2cccc(Oc3ncc(Cl)cn3)c12	5 (5=81-100%)

Okay, here is my list. What is percentage damage caused to the plant, AMAPA for each of these?
1. CC(=NOCC(F)(F)F)c1nc(C(F)(F)F)nc2cccc(Oc3ncc(Cl)cn3)c12
2. CO/N=C/CCc1nc(C(F)(F)F)nc2cccc(Oc3ncc(Cl)cn3)c12
3. FC(F)(F)c1nc(CBr)c2c(Oc3ncc(Cl)cn3)cccc2n1
4. Cc1ncc(-c2nc(C(F)(F)F)nc3cccc(Oc4ncc(Cl)cn4)c23)cn1

1. 1 (1=0-20%)
2. 5 (5=81-100%)
3. 5 (5=81-100%)
4. 2 (2=21-40%)

Okay, here is my list. What is percentage damage caused to the plant, AMAPA for each of these?
1. Cc1ccc(Oc2ncc(Cl)cn2)c2c(CCC3CC3)nc(C(F)(F)F)nc12
2. CC(Br)c1nc(C(F)(F)F)nc2cccc(Oc3ncc(Cl)cn3)c12 (centres unmarked)
3. O=C(c1ccc(Br)cn1)c1nc(C(F)(F)F)nc2cccc(Oc3ncc(Cl)cn3)c12

["1 (1=0-20%)", "3 (3=41-60%)", "4 (4=61-80%)"]

Source listed as patent US20250179051A1.
